Structures can show the parent of a compound that is named as a salt.
Catalogue of compounds with associated melting point

Please review the entries below; each comes with its answer.
{"columns": ["compound", "measure-name", "measurement"],
 "data": [
  ["CN(C)CCn1cc(S(=O)(=O)c2cccc(Cl)c2)c2cccnc21 (as salt: hydrochloride)", "melting point", "182 to 186 °C"],
  ["NCCn1cc(S(=O)(=O)c2cc(Cl)cc(Cl)c2)c2cccnc21 (as salt: hydrochloride)", "melting point", "136 to 140 °C"],
  ["CN(C)CCn1cc(S(=O)(=O)c2ccc(Cl)s2)c2cccnc21 (as salt: hydrochloride)", "melting point", "169 to 171 °C"],
  ["CNCCn1cc(S(=O)(=O)c2cccc(F)c2)c2cccnc21", "melting point", "255 to 260 °C"]
]}

Incoming: What value of melting point has been reported for the following compound? `Cc1cccc(S(=O)(=O)c2cn(CCN(C)C)c3ncccc23)c1`
Outgoing: 195 to 197 °C
